- tested_target: Integrin alpha-V/beta-6 (Homo sapiens, UniProt P06756+P18564)
- Sequence (P18564 22-788 limits assumed, one chain of several): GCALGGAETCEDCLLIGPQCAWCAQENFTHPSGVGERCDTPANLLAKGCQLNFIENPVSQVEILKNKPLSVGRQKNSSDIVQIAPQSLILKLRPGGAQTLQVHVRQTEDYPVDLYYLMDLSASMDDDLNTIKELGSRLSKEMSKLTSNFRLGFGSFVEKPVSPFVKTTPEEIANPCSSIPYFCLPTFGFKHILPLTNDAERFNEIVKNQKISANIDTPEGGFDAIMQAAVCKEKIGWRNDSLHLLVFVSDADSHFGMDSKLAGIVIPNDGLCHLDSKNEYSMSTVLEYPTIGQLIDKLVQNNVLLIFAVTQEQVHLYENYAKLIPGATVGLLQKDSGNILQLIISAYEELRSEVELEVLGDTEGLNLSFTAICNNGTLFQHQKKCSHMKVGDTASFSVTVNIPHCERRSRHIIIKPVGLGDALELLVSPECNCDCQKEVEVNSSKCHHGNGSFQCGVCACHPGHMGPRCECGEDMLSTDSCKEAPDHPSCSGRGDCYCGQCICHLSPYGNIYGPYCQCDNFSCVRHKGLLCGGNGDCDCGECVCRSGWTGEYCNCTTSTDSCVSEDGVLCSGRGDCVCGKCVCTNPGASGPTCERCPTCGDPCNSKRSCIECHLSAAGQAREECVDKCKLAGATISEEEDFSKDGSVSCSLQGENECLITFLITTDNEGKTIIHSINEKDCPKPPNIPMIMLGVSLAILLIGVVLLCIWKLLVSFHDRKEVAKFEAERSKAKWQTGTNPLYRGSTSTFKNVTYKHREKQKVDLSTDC
- method: Inhibition of alpha-V-beta-6 integrin receptor in human HT29 cells
- Type: cell-based, HT-29
pIC50: −log10 of the molar value.
observation_type: pIC50

Check out these entries, answers already filled in.
>  <compound>
O=C(O)C[C@@H](NC(=O)CNC(=O)c1cccc(NC2=NCCCN2)c1)c1cc(Br)cc(Cl)c1O

>  <pIC50>
7.06

$$$$
>  <compound>
O=C(O)C[C@@H](NC(=O)CNC(=O)c1cccc(N=C2NCC(F)CN2)c1)c1cc(Cl)cc(Br)c1O (stereo partly drawn)

>  <pIC50>
5.85

$$$$
>  <compound>
O=C(O)C[C@@H](NC(=O)CNC(=O)c1cncc(NC2=NCC(F)CN2)c1)c1cc(Cl)cc(Cl)c1O (stereo partly drawn)

>  <pIC50>
7.85

$$$$
>  <compound>
O=C(O)C[C@@H](NC(=O)CNC(=O)c1cc(O)cc(NC2=NCC(F)(F)CN2)c1)c1cc(Cl)cc(Br)c1O

>  <pIC50>
5.14

$$$$
>  <compound>
O=C(O)C[C@@H](NC(=O)CNC(=O)c1cc(O)cc(NC2=NCC(F)CN2)c1)c1cc(Br)cc(Cl)c1O (stereo partly drawn)

>  <pIC50>
7.15

$$$$
>  <compound>
O=C(O)C[C@@H](NC(=O)CNC(=O)c1cccc(N=C2NCC(F)CN2)c1)c1cc(Cl)cc(Cl)c1O (stereo partly drawn)

>  <pIC50>
7.80

$$$$

P. O=C(O)C[C@@H](NC(=O)CNC(=O)c1cc(O)cc(NC2=NCC(F)CN2)c1)c1cc(Br)cc(I)c1 (stereo partly drawn)
Q. O=C(O)C[C@@H](NC(=O)CNC(=O)c1cccc(NC2=NCCCN2)c1)c1cc(Cl)cc(Cl)c1O
R. O=C(O)C[C@@H](NC(=O)CNC(=O)c1cccc(NC2=NCC(O)CN2)c1)c1cc(Br)cc(Cl)c1O (stereo partly drawn)
S. O=C(O)C[C@@H](NC(=O)CNC(=O)c1cccc(NC2=NCC(O)CN2)c1)c1cc(Cl)cc(I)c1O (stereo partly drawn)
T. O=C(O)C[C@@H](NC(=O)CNC(=O)c1cc(O)cc(NC2=NCC(O)CN2)c1)c1cc(Br)cc(Cl)c1O (stereo partly drawn)
*Q* Rank descending by pIC50. Put the labels in the requested order and list them out.
*A* P, Q, R, T, S

I. Nc1cc(NC2=NCC(O)CN2)cc(C(=O)NCC(=O)N[C@H](CC(=O)O)c2cc(Cl)cc(Br)c2O)c1 (stereo partly drawn)
II. Cc1cc(C)cc([C@@H](CC(=O)O)NC(=O)CNC(=O)c2cc(O)cc(NC3=NCC(F)CN3)c2)c1 (stereo partly drawn)
III. O=C(O)C[C@@H](NC(=O)CNC(=O)c1cc(O)cc(NC2=NCC(F)CN2)c1)c1cc(Cl)cc(Br)c1O (stereo partly drawn)
IV. O=C(O)C[C@@H](NC(=O)CNC(=O)c1cc(O)cc(NC2=NCCCN2)c1)c1cc(Cl)cc(Cl)c1O
*Q* Rank descending by pIC50. Put the labels in the requested order and list them out.
*A* II, III, IV, I
(II: 7.31, III: 6.44, IV: 5.52, I: 5.06)

I. O=C(O)C[C@@H](NC(=O)CNC(=O)c1cncc(NC2=NCC(F)CN2)c1)c1cc(Cl)cc(Br)c1O (stereo partly drawn)
II. O=C(O)C[C@@H](NC(=O)CNC(=O)c1cccc(NC2=NCCCN2)c1)c1cc(Cl)cc(Br)c1O
*Q* Hi, I'm comparing two records. Which one has the lower pIC50, I or II ? Field: selected label. Fill in the label of the entry you choose.
*A* II
(II: 5.18, I: 5.74)

I. O=C(O)C[C@@H](NC(=O)CNC(=O)c1cncc(NC2=NCC(O)CN2)c1)c1cc(Br)cc(Br)c1O (stereo partly drawn)
II. Cc1cc(C)c(O)c([C@@H](CC(=O)O)NC(=O)CNC(=O)c2cc(N)cc(NC3=NCC(F)CN3)c2)c1 (stereo partly drawn)
III. O=C(O)C[C@@H](NC(=O)CNC(=O)c1cccc(NC2=NCCCN2)c1)c1cc(Br)cc(Br)c1O
IV. O=C(O)C[C@@H](NC(=O)CNC(=O)c1cc(O)cc(NC2=NCC(F)CN2)c1)c1cc(Br)cc(Br)c1 (stereo partly drawn)
*Q* Order the records, beginning with the lowest pIC50 and ending with the highest. Put the labels in the requested order and list them out.
*A* III, I, II, IV
(III: 5.49, I: 5.76, II: 7.19, IV: 7.70)

====

- method: Drug level in BALB/c mouse plasma after 6 hrs at 100 mg/kg, ip
- Format: ADME, organism-based
- Parameters: dose 100 mg/kg, route intraperitoneal
- test_settings: read-out: Drug uptake
observation_type: concentration at 6 h (µg/mL)
Reply numerically in µg/mL, unit not repeated.

*Q* Return reported concentration at 6 h; argument: O=C(O)C[C@@H](NC(=O)CNC(=O)c1cc(O)cc(NC2=NCC(F)CN2)c1)c1cc(Cl)cc(Br)c1O (stereo partly specified)
*A* 84.4

====

- tested_target: Integrin alpha-V/beta-3 (Homo sapiens, UniProt P05106+P06756)
- Sequence (P05106 27-788 limits assumed): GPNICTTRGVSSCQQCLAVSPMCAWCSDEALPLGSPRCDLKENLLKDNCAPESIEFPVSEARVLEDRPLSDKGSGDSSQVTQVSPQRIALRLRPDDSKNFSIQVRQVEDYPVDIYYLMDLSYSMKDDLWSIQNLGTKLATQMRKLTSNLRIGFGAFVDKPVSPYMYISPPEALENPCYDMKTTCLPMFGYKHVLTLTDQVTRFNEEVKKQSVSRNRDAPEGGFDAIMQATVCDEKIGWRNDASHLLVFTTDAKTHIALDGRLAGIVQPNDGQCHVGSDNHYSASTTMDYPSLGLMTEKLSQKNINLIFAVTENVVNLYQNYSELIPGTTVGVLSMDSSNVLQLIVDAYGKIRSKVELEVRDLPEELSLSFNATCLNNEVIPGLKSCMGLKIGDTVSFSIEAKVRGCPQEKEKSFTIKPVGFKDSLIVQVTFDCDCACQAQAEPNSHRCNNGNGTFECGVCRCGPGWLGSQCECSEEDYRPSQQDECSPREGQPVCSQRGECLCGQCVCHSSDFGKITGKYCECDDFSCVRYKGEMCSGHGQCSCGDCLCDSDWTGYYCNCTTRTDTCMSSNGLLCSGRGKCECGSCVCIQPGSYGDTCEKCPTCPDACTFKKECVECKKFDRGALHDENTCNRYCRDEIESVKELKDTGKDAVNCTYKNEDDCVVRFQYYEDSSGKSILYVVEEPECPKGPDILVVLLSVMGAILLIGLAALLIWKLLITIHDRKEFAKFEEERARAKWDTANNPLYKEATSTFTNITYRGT
- Sequence (P06756 31-889 limits assumed): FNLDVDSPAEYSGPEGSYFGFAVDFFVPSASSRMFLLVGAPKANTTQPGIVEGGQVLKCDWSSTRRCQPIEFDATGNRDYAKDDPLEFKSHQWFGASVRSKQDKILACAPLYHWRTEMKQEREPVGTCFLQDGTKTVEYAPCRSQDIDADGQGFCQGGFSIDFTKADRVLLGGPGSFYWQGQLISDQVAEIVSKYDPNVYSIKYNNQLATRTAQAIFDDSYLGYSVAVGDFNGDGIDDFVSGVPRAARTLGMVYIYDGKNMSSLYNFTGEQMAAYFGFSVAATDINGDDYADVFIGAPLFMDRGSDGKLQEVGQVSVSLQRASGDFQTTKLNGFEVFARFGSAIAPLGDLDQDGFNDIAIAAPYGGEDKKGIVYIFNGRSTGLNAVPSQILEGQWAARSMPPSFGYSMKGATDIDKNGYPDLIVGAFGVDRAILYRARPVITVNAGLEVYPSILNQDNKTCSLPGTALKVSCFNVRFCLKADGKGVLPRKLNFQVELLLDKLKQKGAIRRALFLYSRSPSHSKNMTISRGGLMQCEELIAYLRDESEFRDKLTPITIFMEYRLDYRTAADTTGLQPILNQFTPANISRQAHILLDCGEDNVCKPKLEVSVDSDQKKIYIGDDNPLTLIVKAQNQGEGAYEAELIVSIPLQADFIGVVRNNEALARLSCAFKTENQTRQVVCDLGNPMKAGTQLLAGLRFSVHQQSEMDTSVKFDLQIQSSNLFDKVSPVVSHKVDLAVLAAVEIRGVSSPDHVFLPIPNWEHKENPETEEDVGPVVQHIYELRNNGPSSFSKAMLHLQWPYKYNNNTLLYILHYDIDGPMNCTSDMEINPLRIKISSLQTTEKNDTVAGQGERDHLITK
- Sequence (P06756 891-1048 limits assumed): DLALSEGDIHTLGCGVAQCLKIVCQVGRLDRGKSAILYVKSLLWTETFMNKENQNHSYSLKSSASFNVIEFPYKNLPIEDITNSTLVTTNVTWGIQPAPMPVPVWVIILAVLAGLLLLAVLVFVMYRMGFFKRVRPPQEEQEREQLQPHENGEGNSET
- method: Inhibition of alphaVbeta3 integrin receptor expressed in human 293 cells
pIC50: −log10 of the molar value.
observation_type: pIC50

>  <compound>
O=C(O)C[C@@H](NC(=O)CNC(=O)c1cncc(NC2=NCC(O)CN2)c1)c1cc(Cl)cc(I)c1O (some centres not stated)

>  <readout_value>
9.00

$$$$
>  <compound>
O=C(O)C[C@@H](NC(=O)CNC(=O)c1cc(O)cc(NC2=NCC(O)CN2)c1)c1cc(Cl)cc(Br)c1O (some centres not stated)

>  <readout_value>
8.52

$$$$
>  <compound>
Cc1cc(C)cc([C@@H](CC(=O)O)NC(=O)CNC(=O)c2cc(O)cc(NC3=NCC(F)CN3)c2)c1 (some centres not stated)

>  <readout_value>
7.25

$$$$
>  <compound>
O=C(O)C[C@@H](NC(=O)CNC(=O)c1cc(O)cc(NC2=NCC(O)CN2)c1)c1cc(Cl)cc(Cl)c1O (some centres not stated)

>  <readout_value>
8.52

$$$$
>  <compound>
O=C(O)C[C@@H](NC(=O)CNC(=O)c1cccc(NC2=NCCCN2)c1)c1cc(Cl)cc(I)c1O

>  <readout_value>
8.15

$$$$
>  <compound>
O=C(O)C[C@@H](NC(=O)CNC(=O)c1cc(O)cc(NC2=NCC(O)CN2)c1)c1cc(Br)cc(Br)c1O (some centres not stated)

>  <readout_value>
7.68

$$$$
>  <compound>
O=C(O)C[C@H](NC(=O)CNC(=O)c1cc(O)cc(N=C2NCC(O)CN2)c1)c1cc(Cl)cc(Cl)c1O (some centres not stated)

>  <readout_value>
9.05

$$$$
>  <compound>
O=C(O)C[C@H](NC(=O)CNC(=O)c1cncc(NC2=NCC(O)CN2)c1)c1cc(Br)cc(Cl)c1O (some centres not stated)

>  <readout_value>
9.52

$$$$
>  <compound>
O=C(O)C[C@H](NC(=O)CNC(=O)c1cc(O)cc(NC2=NCC(O)CN2)c1)c1cc(Cl)cc(I)c1O (some centres not stated)

>  <readout_value>
8.19

$$$$
>  <compound>
O=C(O)C[C@@H](NC(=O)CNC(=O)c1cncc(NC2=NCC(O)CN2)c1)c1cc(Br)cc(Br)c1O (some centres not stated)

>  <readout_value>
8.70

$$$$

A. O=C(O)C[C@@H](NC(=O)CNC(=O)c1cccc(NC2=NCC(O)CN2)c1)c1cc(Cl)cc(Cl)c1O (some centres not stated)
B. O=C(O)C[C@@H](NC(=O)CNC(=O)c1cc(O)cc(NC2=NCC(F)CN2)c1)c1cc(Cl)cc(I)c1O (some centres not stated)
C. O=C(O)C[C@@H](NC(=O)CNC(=O)c1cc(O)cc(NC2=NCC(F)CN2)c1)c1cc(Br)cc(I)c1 (some centres not stated)
D. Cc1cc(C)c(O)c([C@@H](CC(=O)O)NC(=O)CNC(=O)c2cc(O)cc(NC3=NCC(O)CN3)c2)c1 (some centres not stated)
*Q* Order the records, beginning with the lowest pIC50 and ending with the highest. Put the labels in the requested order and list them out.
*A* D, C, B, A

====

- tested_target: Integrin alpha-V/beta-3 (Homo sapiens, UniProt P05106+P06756)
- method: Inhibition of alphaVbeta3 integrin receptor expressed in human 293 cells
pIC50: −log10 of the molar value.
observation_type: pIC50

Check out these entries, answers already filled in.
>  <molecule>
O=C(O)C[C@@H](NC(=O)CNC(=O)c1cc(O)cc(NC2=NCC(F)CN2)c1)c1cc(Br)cc(Cl)c1O (stereo not given in full)

>  <tested_target>
Integrin alpha-V/beta-3 (Homo sapiens, UniProt P05106+P06756)

>  <observation_type>
pIC50

>  <readout_value>
8.52

$$$$
>  <molecule>
O=C(O)C[C@@H](NC(=O)CNC(=O)c1cccc(NC2=NCC(O)CN2)c1)c1cc(Cl)cc(Br)c1O (stereo not given in full)

>  <tested_target>
Integrin alpha-V/beta-3 (Homo sapiens, UniProt P05106+P06756)

>  <observation_type>
pIC50

>  <readout_value>
8.30

$$$$
>  <molecule>
O=C(O)C[C@@H](NC(=O)CNC(=O)c1cc(O)cc(NC2=NCC(F)CN2)c1)c1cc(Cl)cc(Br)c1 (stereo not given in full)

>  <tested_target>
Integrin alpha-V/beta-3 (Homo sapiens, UniProt P05106+P06756)

>  <observation_type>
pIC50

>  <readout_value>
8.30

$$$$
>  <molecule>
Nc1cc(NC2=NCC(O)CN2)cc(C(=O)NCC(=O)N[C@H](CC(=O)O)c2cc(Cl)cc(Br)c2O)c1 (stereo not given in full)

>  <tested_target>
Integrin alpha-V/beta-3 (Homo sapiens, UniProt P05106+P06756)

>  <observation_type>
pIC50

>  <readout_value>
7.66

$$$$
>  <molecule>
O=C(O)C[C@H](NC(=O)CNC(=O)c1cncc(N=C2NCC(O)CN2)c1)c1cc(Cl)cc(Br)c1O (stereo not given in full)

>  <tested_target>
Integrin alpha-V/beta-3 (Homo sapiens, UniProt P05106+P06756)

>  <observation_type>
pIC50

>  <readout_value>
9.40

$$$$
>  <molecule>
O=C(O)C[C@@H](NC(=O)CNC(=O)c1cccc(NC2=NCC(O)CN2)c1)c1cc(Br)cc(Cl)c1O (stereo not given in full)

>  <tested_target>
Integrin alpha-V/beta-3 (Homo sapiens, UniProt P05106+P06756)

>  <observation_type>
pIC50

>  <readout_value>
8.10

$$$$
>  <molecule>
O=C(O)C[C@H](NC(=O)CNC(=O)c1cccc(N=C2NCC(O)CN2)c1)c1cc(Cl)cc(I)c1O (stereo not given in full)

>  <tested_target>
Integrin alpha-V/beta-3 (Homo sapiens, UniProt P05106+P06756)

>  <observation_type>
pIC50

>  <readout_value>
8.80

$$$$
>  <molecule>
O=C(O)C[C@H](NC(=O)CNC(=O)c1cc(O)cc(NC2=NCCCN2)c1)c1cc(Cl)cc(Br)c1O

>  <tested_target>
Integrin alpha-V/beta-3 (Homo sapiens, UniProt P05106+P06756)

>  <observation_type>
pIC50

>  <readout_value>
8.70

$$$$
>  <molecule>
O=C(O)C[C@@H](NC(=O)CNC(=O)c1cc(O)cc(NC2=NCCCN2)c1)c1cc(Br)cc(Cl)c1O

>  <tested_target>
Integrin alpha-V/beta-3 (Homo sapiens, UniProt P05106+P06756)

>  <observation_type>
pIC50

>  <readout_value>
8.00

$$$$
>  <molecule>
O=C(O)C[C@H](NC(=O)CNC(=O)c1cc(O)cc(NC2=NCC(O)CN2)c1)c1cc(Cl)cc(Br)c1O (stereo not given in full)

>  <tested_target>
Integrin alpha-V/beta-3 (Homo sapiens, UniProt P05106+P06756)

>  <observation_type>
pIC50

>  <readout_value>
8.59

$$$$

1. O=C(O)C[C@@H](NC(=O)CNC(=O)c1cncc(NC2=NCC(O)CN2)c1)c1cc(Br)cc(Cl)c1O (stereo not given in full)
2. O=C(O)C[C@H](NC(=O)CNC(=O)c1cccc(NC2=NCCCN2)c1)c1cc(Cl)cc(Br)c1O
*Q* Higher pIC50 between 1 and 2 ? Field: selected label. Fill in the label of the entry you choose.
*A* 1
(1: 9.00, 2: 8.70)

I. Cc1cc(Cl)cc([C@H](CC(=O)O)NC(=O)CNC(=O)c2cc(O)cc(NC3=NCC(O)CN3)c2)c1O (stereo not given in full)
II. Cc1cc(C)c(O)c([C@H](CC(=O)O)NC(=O)CNC(=O)c2cc(O)cc(NC3=NCC(O)CN3)c2)c1 (stereo not given in full)
*Q* Higher pIC50 between I and II ? Field: selected label. Fill in the label of the entry you choose.
*A* I
(I: 9.70, II: 9.00)
